Test system: A498 renal
assayNotes: NCI tumour cell line growth inhibition, 48 h

{"columns": ["compound", "measureUnit", "relationOperator", "TGI"],
 "data": [
  ["COC(=O)/C(C)=N/NC(=S)SC", "µM", ">", 100],
  ["CN1CCCC2C(c3ccccc3)C(C3=NCCCC3)C(c3ccccc3)CC21 (stereo not given)", "µM", ">", 100],
  ["Cc1nc(N)c(N2CCN(S(N)(=O)=O)CC2)c(=O)[nH]1", "µM", ">", 100],
  ["Cc1sc2nc(N(C)C)oc(=O)c2c1C", "µM", ">", 100],
  ["CC(C)N(C(=O)C12CC3CC(CC(C3)C1)C2)C(C)C", "µM", ">", 50],
  ["COc1ccc(C(=O)COc2cccc(/C=C3\\COc4ccc5ccccc5c4C3=O)c2)cc1", "µM", "=", 87],
  ["Cc1noc(C)c1CCCOC1COc2ccccc2OCCOCCOc2ccccc2OC1", "µM", ">", 100],
  ["Cc1ccc(C(=NN=C(N)N)c2ccc(C)cc2)cc1", "µM", "=", 2.61],
  ["Cc1cc(C)nc(NS(=O)(=O)c2ccc(Nc3c4ccccc4nc4c(C(=O)Nc5ccc(S(=O)(=O)Nc6cc(C)on6)cc5)cccc34)cc2)n1", "µM", "=", 51.5],
  ["CCCCCCCC(CC(=O)NC(CO)C(=O)NC(CO)CC(C)C)OC(=O)CC(CCCCCCC)OC(=O)CC(CCCCCCC)OC1OC(C)C(O)C(OC2OC(C)C(O)C(OC(C)=O)C2O)C1O (stereo not given)", "µM", "=", 26.1]
]}

###

System: TK-10 renal
assayNotes: NCI tumour cell line growth inhibition, 48 h

{"columns": ["compound", "measureUnit", "relationOperator", "TGI"],
 "data": [
  ["COc1ccc(CNc2ccn(C3OC(CO)C(O)C3O)c(=O)n2)cc1 (centres undefined)", "µM", ">", 100],
  ["C/C(Cl)=N/OC(=O)Nc1ccc(F)c([N+](=O)[O-])c1", "µM", "=", 13.2],
  ["COc1cccc(Nc2nc(C)c([N+](=O)[O-])c(Nc3cccc(OC)c3)n2)c1", "µM", "=", 95.7],
  ["Cn1c(-c2cccs2)cc(-c2cccs2)c1-c1cccs1", "µM", ">", 100]
]}

###

System: LOX IMVI melanoma
assayNotes: NCI tumour cell line growth inhibition, 48 h; in the data active = GI50 below about 0.43 µM; inactive = the rest
Labels: 1.0 (active), 0.0 (inactive)

{"columns": ["compound", "qualitativeLabel"],
 "data": [
  ["Cc1ccc(C(=NN=C(N)N)c2ccc(C)cc2)cc1", 0.0],
  ["CC/C=C\\C[C@@H]1C/C=C2/C(=O)C=C[C@H]2C/C=C\\CCCC(=O)O1", 1.0],
  ["O=C(c1cccc(O)c1O)c1cn(Cc2ccc(F)cc2)c2cccc(O)c12", 0.0],
  ["CCOC(=O)c1c(CN2CCN(c3ccccc3)CC2)n(-c2ccccc2)c2cc(Br)c(O)cc12", 0.0],
  ["CCN(CC)c1sc(N(CC)CC)c2c1SSSSS2", 0.0],
  ["CCS(=O)(=O)c1ccc(OC)c(Nc2ncc(-c3cccc(C(C)=O)c3)o2)c1", 0.0],
  ["CCN(CC)c1ccc(C(=N)c2ccc(N(CC)CC)cc2)cc1", 0.0],
  ["CCC#CC[C@H]1C/C=C2/C(=O)C=C[C@@H]2C/C=C\\CCCC(=O)O1", 0.0],
  ["COc1cc(C2=NN(C(C)=O)C(c3ccc(OC(C)=O)cc3OC(C)=O)O2)c(OC(C)=O)c2ccccc12 (configuration not stated)", 1.0],
  ["CCCCN=C(N)c1ccc(OCCSCCOc2ccc(C(N)=NCCCC)cc2)cc1", 0.0],
  ["CC(=O)[CH-]C(=O)c1ccccc1.CC(=O)[CH-]C(=O)c1ccccc1.O=C([O-])c1ccc([O-])cc1.O=C([O-])c1ccc([O-])cc1.[Ti+4]", 0.0],
  ["CC1CN1CC(O)C(O)CN1CC1C (configuration not stated)", 0.0]
]}

Every entry's value here was drawn from PubChem BioAssay (NCI).
